tested on: NCI-H23; assay: relative viability (nuclei count vs DMSO), 5 days (fraction); higher = more cells survive; settings: first compound 0.08 µM
Quick reference: relative viability of the listed items.
Form: value (number only, do not type unit).

Some entries whose results are on file:
CCCCCCCCCCCC1=C(O)C(=O)C=C(O)C1=O [Embelin] + Nc1ncn([C@H]2C[C@H](O)[C@@H](CO)O2)c(=O)n1 [Decitabine] (partner 2 µM) = 0.258
CCCCCCCCCCCC1=C(O)C(=O)C=C(O)C1=O [Embelin] + Cc1cc(Nc2cc(N3CCN(C)CC3)nc(Sc3ccc(NC(=O)C4CC4)cc3)n2)n[nH]1 [Tozasertib] (partner 0.1 µM) = 0.47
CCCCCCCCCCCC1=C(O)C(=O)C=C(O)C1=O [Embelin] + C[C@@H](Oc1cc(-c2cnn(C3CCNCC3)c2)cnc1N)c1c(Cl)ccc(F)c1Cl [Crizotinib] (partner 1 µM) = 0.554

// moving on: another record for relative viability
[ask] Sample CCCCCCCCCCCC1=C(O)C(=O)C=C(O)C1=O [Embelin] + CC(C)C[C@H](NC(=O)[C@H](Cc1ccccc1)NC(=O)c1cnccn1)B(O)O [Bortezomib] (partner 0.002 µM) — what was its relative viability?
[reply] 0.971

====

system: NCI-H647; test: relative viability (nuclei count vs DMSO), 5 days (fraction); higher = more cells survive; conditions: first compound 0.1265 µM
assay.readout: relative viability
Respond with the number and no other words.

COc1cc(N2CCC(C(N)=O)CC2)ccc1Nc1nc(N)c(Cl)c(Nc2ccccc2S(=O)(=O)C(C)C)n1 [HG-5-88-01] + CC(=O)c1c(C)c2cnc(Nc3ccc(N4CCNCC4)cn3)nc2n(C2CCCC2)c1=O [Palbociclib] (partner 0.5 µM) = 0.423

In the following, a different compound is considered.
[ask] Value lookup for relative viability; key = C[C@@H]1CN(CC(=O)Nc2ccc3c(c2)Cc2cccc(-c4cc(=O)cc(N5CCOCC5)o4)c2S3)C[C@H](C)O1 + CC(C)C[C@H](NC(=O)[C@H](Cc1ccccc1)NC(=O)c1cnccn1)B(O)O [Bortezomib] (partner 0.002 µM)
[reply] 1.02

====

test system: COR-L 105; assay: relative viability (nuclei count vs DMSO), 5 days (fraction); higher = more cells survive; settings: first compound 0.1265 µM
relative viability listing for selected molecules.
Number only, please.

Some solved entries appear below for comparison.
C[C@@H]1CN(CC(=O)Nc2ccc3c(c2)Cc2cccc(-c4cc(=O)cc(N5CCOCC5)o4)c2S3)C[C@H](C)O1 + N=C(N)NC(=N)NCCc1ccccc1 [Phenformin] (partner 250 µM) = 0.444
COc1cc(N2CCC(C(N)=O)CC2)ccc1Nc1nc(N)c(Cl)c(Nc2ccccc2S(=O)(=O)C(C)C)n1 [HG-5-88-01] + COc1cc2c(Oc3ccc(NC(=O)C4(C(=O)Nc5ccc(F)cc5)CC4)cc3F)ccnc2cc1OCCCN1CCOCC1 [Foretinib] (partner 0.25 µM) = 1.11
C[C@@H]1CN(CC(=O)Nc2ccc3c(c2)Cc2cccc(-c4cc(=O)cc(N5CCOCC5)o4)c2S3)C[C@H](C)O1 + Nc1nc2[nH]cc(CCc3ccc(C(=O)N[C@@H](CCC(=O)O)C(=O)O)cc3)c2c(=O)[nH]1 [Pemetrexed] (partner 0.2 µM) = 1.07

Here's the next entry for you.
[ask] Would you mind telling me what relative viability value was observed for C[C@@H]1CN(CC(=O)Nc2ccc3c(c2)Cc2cccc(-c4cc(=O)cc(N5CCOCC5)o4)c2S3)C[C@H](C)O1 + Cc1nc(Nc2ncc(C(=O)Nc3c(C)cccc3Cl)s2)cc(N2CCN(CCO)CC2)n1 [Dasatinib] (partner 0.075 µM) ?
[reply] 0.413

====

The following molecules are listed with their measured relative viability values.
system: NCI-H1563; assay: relative viability (nuclei count vs DMSO), 5 days (fraction); higher = more cells survive; conditions: first compound 4 µM
Please respond with just the number, no unit label.

Below are worked cases with known answers.
COc1cc(N2CCC(C(N)=O)CC2)ccc1Nc1nc(N)c(Cl)c(Nc2ccccc2S(=O)(=O)C(C)C)n1 [HG-5-88-01] + CC(C)C[C@H](NC(=O)[C@H](Cc1ccccc1)NC(=O)c1cnccn1)B(O)O [Bortezomib] (partner 0.002 µM) = 0.855
COc1cc(N2CCC(C(N)=O)CC2)ccc1Nc1nc(N)c(Cl)c(Nc2ccccc2S(=O)(=O)C(C)C)n1 [HG-5-88-01] + CS(=O)(=O)CCNCc1ccc(-c2ccc3ncnc(Nc4ccc(OCc5cccc(F)c5)c(Cl)c4)c3c2)o1 [Lapatinib] (partner 2 µM) = 1.24
Clc1ccc(Nc2nnc(Cc3ccncc3)c3ccccc23)cc1 [Vatalanib] + Nc1nc2[nH]cc(CCc3ccc(C(=O)N[C@@H](CCC(=O)O)C(=O)O)cc3)c2c(=O)[nH]1 [Pemetrexed] (partner 0.2 µM) = 0.77

Switching to the query record.
[ask] Name the reported relative viability value associated with the molecule COc1cc(N2CCC(C(N)=O)CC2)ccc1Nc1nc(N)c(Cl)c(Nc2ccccc2S(=O)(=O)C(C)C)n1 [HG-5-88-01] + Cc1nc(NC(=O)N2CCC[C@H]2C(N)=O)sc1-c1ccnc(C(C)(C)C(F)(F)F)c1 [Alpelisib] (partner 2 µM)
[reply] 0.993

====

Below, each entry is listed with its recorded relative viability.
system: Calu-6; test: relative viability (nuclei count vs DMSO), 5 days (fraction); higher = more cells survive; conditions: first compound 0.04 µM
Answer using only a numeral; do not append any unit.

Clc1ccc(Nc2nnc(Cc3ccncc3)c3ccccc23)cc1 [Vatalanib] + C[C@@H](Oc1cc(-c2cnn(C3CCNCC3)c2)cnc1N)c1c(Cl)ccc(F)c1Cl [Crizotinib] (partner 1 µM) = 0.756

Turning to the following compound.
[ask] Could you share which relative viability value was measured for C[C@@H]1CN(CC(=O)Nc2ccc3c(c2)Cc2cccc(-c4cc(=O)cc(N5CCOCC5)o4)c2S3)C[C@H](C)O1 + C[C@@H](Oc1cc(-c2cnn(C3CCNCC3)c2)cnc1N)c1c(Cl)ccc(F)c1Cl [Crizotinib] (partner 1 µM) ?
[reply] 0.829

====

system: LK-2; assay: relative viability (nuclei count vs DMSO), 5 days (fraction); higher = more cells survive; conditions: first compound 0.04 µM
assay.readout: relative viability
# respond with the number and nothing more

See these solved cases before continuing.
C[C@@H]1CN(CC(=O)Nc2ccc3c(c2)Cc2cccc(-c4cc(=O)cc(N5CCOCC5)o4)c2S3)C[C@H](C)O1 + COc1cccc2cc(-c3nc([C@H]4CC[C@H](C(=O)O)CC4)n4ncnc(N)c34)[nH]c12 [OSI-027] (partner 0.5 µM) = 0.196
Clc1ccc(Nc2nnc(Cc3ccncc3)c3ccccc23)cc1 [Vatalanib] + O=C(c1cc(Cc2n[nH]c(=O)c3ccccc23)ccc1F)N1CCN(C(=O)C2CC2)CC1 [Olaparib] (partner 8 µM) = 0.723
COc1cc(N2CCC(C(N)=O)CC2)ccc1Nc1nc(N)c(Cl)c(Nc2ccccc2S(=O)(=O)C(C)C)n1 [HG-5-88-01] + C[C@]1(O)C[C@@H](c2nc(-c3ccc4ccc(-c5ccccc5)nc4c3)c3c(N)nccn32)C1 [Linsitinib] (partner 1 µM) = 0.591

[ask] Requested read-out: relative viability. Entry: COc1cc(N2CCC(C(N)=O)CC2)ccc1Nc1nc(N)c(Cl)c(Nc2ccccc2S(=O)(=O)C(C)C)n1 [HG-5-88-01] + O=C(c1cc(Cc2n[nH]c(=O)c3ccccc23)ccc1F)N1CCN(C(=O)C2CC2)CC1 [Olaparib] (partner 8 µM)
[reply] 0.941

[ask] Cool, now Clc1ccc(Nc2nnc(Cc3ccncc3)c3ccccc23)cc1 [Vatalanib] + O=C(CCCCCCC(=O)Nc1ccccc1)NO [Vorinostat] (partner 1 µM)
[reply] 0.388

[ask] Repeat with Clc1ccc(Nc2nnc(Cc3ccncc3)c3ccccc23)cc1 [Vatalanib] + N=C(N)NC(=N)NCCc1ccccc1 [Phenformin] (partner 250 µM)
[reply] 0.408

[ask] Next compound up: Clc1ccc(Nc2nnc(Cc3ccncc3)c3ccccc23)cc1 [Vatalanib] + CS(=O)(=O)CCNCc1ccc(-c2ccc3ncnc(Nc4ccc(OCc5cccc(F)c5)c(Cl)c4)c3c2)o1 [Lapatinib] (partner 2 µM)
[reply] 0.88

====

Entries and their relative viability
test system: H3255; assay: relative viability (nuclei count vs DMSO), 5 days (fraction); higher = more cells survive; settings: first compound 0.1265 µM
Simply state the number, no unit and no words.

C[C@@H]1CN(CC(=O)Nc2ccc3c(c2)Cc2cccc(-c4cc(=O)cc(N5CCOCC5)o4)c2S3)C[C@H](C)O1 + N=C(N)NC(=N)NCCc1ccccc1 [Phenformin] (partner 250 µM) = 0.364

Continue with the next compound.
[ask] Query (compound): C[C@@H]1CN(CC(=O)Nc2ccc3c(c2)Cc2cccc(-c4cc(=O)cc(N5CCOCC5)o4)c2S3)C[C@H](C)O1 + CC1(C)CCC(c2ccc(Cl)cc2)=C(CN2CCN(c3ccc(C(=O)NS(=O)(=O)c4ccc(N[C@H](CCN5CCOCC5)CSc5ccccc5)c(S(=O)(=O)C(F)(F)F)c4)cc3)CC2)C1 [Navitoclax] (partner 0.5 µM) ; field requested: relative viability
[reply] 0.411
